assay: chemical genetic growth profiling, strain panel (AID 1159580);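 note: tested at 20 µM; growth read once vehicle control cultures reached saturation at 30 °C; 1 = growth at the plate median or of vehicle wells; lower values mean less growth of the strain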; conditions: S. cerevisiae deletion strains, growth OD, locus YMR058W, strain fet3
The whole screen tested about 5,500 compounds, of which about 2,000 (36%) were called active. Inconclusive results (about 18%) are left out. Cut-off read from the data, not from the text of the source: active = normalized growth mostly below about 0.91 (no sharp cut-off); inconclusive = no clear call, values can overlap the other calls; inactive = mostly above about 0.92. The list shows a part of the results.
// classify into active, inactive

> print(dat)
                    compound  assignedcategory
1  CCCc1cc(=O)[nH]c(=S)[nH]1          inactive

Inquiry: Hi, do you know how CC(C)NCC(O)COc1ccc(COCCOC(C)C)cc1 (stereo unspecified) came out in this test?
Reply text: inactive

Inquiry: Recorded call for `C/C1=C/CC(C)(C)/C=C/C/C(C)=C/CC1` ?
Reply text: inactive

Inquiry: Outcome logged for `Cc1cc(=O)[nH]c(=S)[nH]1` in this assay:
Reply text: inactive

Inquiry: Hello, I am checking results. What call was entered for `C=C1c2c(Cl)ccc(O)c2C(O)=C2C(=O)[C@]3(O)C(O)=C(C(N)=O)C(=O)[C@@H](N(C)C)[C@@H]3[C@@H](O)[C@H]12` ?
Reply text: active

Inquiry: Could you kindly confirm the outcome this assay logged for `C[C@H]1c2cccc(O)c2C(O)=C2C(=O)[C@]3(O)C(O)=C(C(N)=O)C(=O)[C@@H](N(C)C)[C@@H]3[C@@H](O)[C@@H]21` ?
Reply text: inactive

###

Reported values of normalized growth for individual entries
assay: chemical genetic growth profiling, strain panel (AID 1159580); settings: S. cerevisiae deletion strains, growth OD, locus YNL209W, strain ssb2, active compounds read low
Out of some 5,500 compounds screened, about 2,000 (36%) were called active. Not shown: some 18% with an inconclusive outcome. Some of the results follow.
Just the number, please, no unit after it.

Before answering, review these 4 worked examples.
> print(dat)
                                  structure       quantitykind  measuredresult
1  CN(C)[C@@H]1C(=O)C(C(N)=O)=C(O)[C@@]2(O)C(=O)C3=C(O)c4c(O)ccc(Cl)c4[C@@](C)(O)[C@H]3C[C@@H]12  normalized growth            0.99
2           CNCCCC12CCC(c3ccccc31)c1ccccc12  normalized growth           0.967
3  CN(C)[C@@H]1C(=O)C(C(=O)NCN2CCCC2)=C(O)[C@@]2(O)C(=O)C3=C(O)c4c(O)cccc4[C@@](C)(O)[C@H]3C[C@@H]12  normalized growth           0.993
4                 CCCc1cc(=O)[nH]c(=S)[nH]1  normalized growth            1.02

Kindly consider the entry below.
Inquiry: So what's the measured normalized growth for this one? `CCN(CC)CCOC(=O)C1(C2CCCCC2)CCCCC1`
Reply text: 0.947

###

assay: chemical genetic growth profiling, strain panel (AID 1159580); settings: S. cerevisiae deletion strains, growth OD, locus YLR039C, strain RIC1, active compounds read low
The campaign covered roughly 5,500 compounds. About 2,000 (36%) were called active. Not shown: some 18% with an inconclusive outcome. The list shows a part of the results.
Entries and their normalized growth values follow.
# respond with the number and nothing more

Example results:
> print(dat)
                             structure  measuredresult
1         COC(=O)C/C(N)=C(\C#N)C(=O)OC           0.993
2             Cc1ccc(-c2nn[nH]n2)cc1Cl               1
3  NCCCCCCNS(=O)(=O)c1cccc2c(Cl)cccc12            1.01
4   c1ccc(CN2CCC(n3nnc4cccnc43)CC2)cc1               1

Inquiry: normalized growth for `CCOC(=O)CSc1nc2cc(C(F)(F)F)cnc2n1C` ?
Reply text: 1.05

###

test: chemical genetic growth profiling, strain panel (AID 1159580);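 note: tested at 20 µM; growth read once vehicle control cultures reached saturation at 30 °C; 1 = growth at the plate median or of vehicle wells; lower values mean less growth of the strain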; details: S. cerevisiae deletion strains, growth OD, locus YCL011C, strain gbp2, active compounds read low
The whole screen tested about 5,500 compounds, of which about 2,000 (36%) were called active. Another 18% or so got no clear call; they are omitted. The list shows a part of the results.
Documented normalized growth across a set of compounds
I'd appreciate a reply containing only the number, no unit.

Guide cases for normalized growth, answers given:
compound	normalized growth
CC12CCC3C(CC3(C)C)C(C)(CCC1=O)O2 (stereo not given)	1.01
CC(=O)Oc1ccc(C(c2ccc(OC(C)=O)cc2)c2ccccn2)cc1	1.02
CCCOc1ccc2nc(NC(=O)OC)[nH]c2c1	1.01

Inquiry: Fill blank: measured normalized growth of the compound `CNNC` is ____.
Reply text: 1.01

Inquiry: Endpoint output: normalized growth of `Cc1cn[nH]c1` . Value?
Reply text: 1.02

Inquiry: I am curious: what normalized growth value has been reported for `C[C@H]1c2cccc(O)c2C(O)=C2C(=O)[C@]3(O)C(O)=C(C(N)=O)C(=O)[C@@H](N(C)C)[C@@H]3[C@@H](O)[C@@H]21` ?
Reply text: 0.971

###

assay: chemical genetic growth profiling, strain panel (AID 1159580);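 note: tested at 20 µM; growth read once vehicle control cultures reached saturation at 30 °C; 1 = growth at the plate median or of vehicle wells; lower values mean less growth of the strain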; settings: S. cerevisiae deletion strains, growth OD, locus YAL026C, strain drs2, active compounds read low
In all, about 5,500 compounds went through this assay and about 2,000 (36%) were called active. Inconclusive results (about 18%) are left out. The list shows a part of the results.
quantityKind: normalized growth
// no unit string in output, number only

Inquiry: Return reported normalized growth; argument: COC1CC2CCC(C)C(O)(O2)C(=O)C(=O)N2CCCCC2C(=O)OC(C(C)CC2CCC(O)C(OC)C2)CC(=O)C(C)/C=C(\C)C(O)C(OC)C(=O)C(C)CC(C)/C=C/C=C/C=C/1C (stereo not drawn)
Reply text: 0.0607

Inquiry: Entry CO[C@H]1CC(O[C@@H]2/C(C)=C/C[C@@H]3C[C@@H](C[C@]4(CC[C@H](C)[C@@H](C5CCCCC5)O4)O3)OC(=O)[C@@H]3C=C(C)/C(=N\O)[C@H]4OC/C(=C\C=C\[C@@H]2C)[C@]43O)O[C@@H](C)C1O (stereo partly drawn) has what normalized growth?
Reply text: 1.02

Inquiry: Record request: normalized growth value, item `CC(=O)Oc1ccc(C(c2ccc(OC(C)=O)cc2)c2ccccn2)cc1`
Reply text: 1.02

Inquiry: State the recorded normalized growth for this entry: CCC(C)[C@H]1O[C@]2(C=C[C@@H]1C)C[C@@H]1C[C@@H](C/C=C(\C)[C@@H](OC3C[C@H](OC)C(O[C@H]4C[C@H](OC)[C@@H](O)[C@H](C)O4)[C@H](C)O3)[C@@H](C)/C=C/C=C3\CO[C@@H]4[C@H](O)C(C)=C[C@@H](C(=O)O1)[C@]34O)O2 (stereo partly drawn)
Reply text: 0.954

Inquiry: I have this compound here, `N=C(N)N` , and I need its recorded normalized growth.
Reply text: 0.994

Inquiry: Please look up its normalized growth: `O=C1NC(O)=NC1(c1ccccc1)c1ccccc1`
Reply text: 1.01

Inquiry: Quick check: normalized growth of COc1ccccc1OCC(O)CO (stereo not drawn) ?
Reply text: 1.02

Inquiry: For the compound shown here, `CC(C)C[C@@H](CN)CC(=O)O` , give the reported normalized growth.
Reply text: 1.03

###

# normalized growth values compiled below
experiment: chemical genetic growth profiling, strain panel (AID 1159580);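 note: tested at 20 µM; growth read once vehicle control cultures reached saturation at 30 °C; 1 = growth at the plate median or of vehicle wells; lower values mean less growth of the strain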; conditions: S. cerevisiae deletion strains, growth OD, locus YIR030C, strain dcg1, active compounds read low
The campaign covered roughly 5,500 compounds. About 2,000 (36%) were called active. Not shown: some 18% with an inconclusive outcome. The list shows a part of the results.
Please reply with the number alone, leaving off any unit.

Solved cases below.
> print(dat)
                                   molecule  measuredresult
1                    CC1=CC(=O)c2ccccc2C1=O          0.0593
2  CC(CCC(=O)O)[C@H]1CCC2C3CC[C@@H]4CC(=O)CC[C@]4(C)C3C=C[C@@]21C (stereo partly specified)            1.02
3  CS(=O)(=O)Nc1ccc([N+](=O)[O-])cc1Oc1ccccc1           0.976
4       Oc1c(Cl)cc(Cl)cc1Sc1cc(Cl)cc(Cl)c1O            1.01
5  NS(=O)(=O)c1cc2c(cc1Cl)NC(CSCc1ccccc1)=NS2(=O)=O           0.993

Inquiry: Given the entry `C=C1C[C@]23C[C@@]1(O)CC[C@H]2[C@@]12C=C[C@H](O)[C@@](C)(C(=O)O1)[C@H]2[C@@H]3C(=O)O` , report its measured normalized growth.
Reply text: 0.994

Inquiry: # get_value(readout='normalized growth', item= `COc1cc(C/C=C/c2ccccc2)c(OC)cc1O` )
Reply text: 0.956

Inquiry: What normalized growth value was documented for this molecule, C=C(C)C1(O)OC(=O)C=C1OC (stereo unspecified) ?
Reply text: 0.986

Inquiry: Please look up its normalized growth: `CCOC(=O)[C@H](CCc1ccccc1)N[C@@H](C)C(=O)N1CCC[C@H]1C(=O)O`
Reply text: 1.01

Inquiry: Any idea what normalized growth was measured for CC12CCC3C(CC3(C)C)C(C)(CCC1=O)O2 (stereo unspecified) ?
Reply text: 1.02

Inquiry: Need normalized growth, item `NCCCCCCNS(=O)(=O)c1cccc2c(Cl)cccc12`
Reply text: 0.992
